This listing pairs molecules with measured viability at 96 h.
- assay: Cytotoxicity against human MCF-10A cells assessed as cell viability incubated for 96 hrs by MTT assay
- Type: toxicity, cell-based
- Design: concentration or dose not given beside the values
- recorded-conditions: read-out: Activity
Kindly answer with a numeric value in %, unit omitted.

Illustrative cases are given below, each with its answer.
COc1cccc(/C=C2\CCc3c(O)cccc3C2=O)c1Cl    96
COc1ccc(/C=C2\CNC/C(=C\c3ccc(OC)c(OC)c3Cl)C2=O)c(Cl)c1OC    92
COc1cccc(/C=C2\CC(C)C/C(=C\c3cccc(OC)c3Cl)C2=O)c1Cl (configuration not stated)    93
COc1ccc2c(c1)CC/C(=C\c1ccc(OC)c(OC)c1Cl)C2=O    89
COc1ccc(/C=C2\CCc3ccc([N+](=O)[O-])cc3C2=O)c(Cl)c1OC    90
COc1ccc2c(c1)CCC(=C\c1cc(OC)c(OC)c(OC)c1Br)/C2=N\O    92

The record that follows has no viability at 96 h shown yet.
Reported viability at 96 h of `COc1cccc(/C=C2\CCc3ccc(F)cc3C2=O)c1Cl` : 90

---

- Tested on: NCI-H460
- assay: cells
- recorded-conditions: Homo sapiens, NCI-H460, 48 h
- Description: Antiproliferative activity against human NCI-H460 cells assessed as inhibition of cell growth incubated for 48 hrs by propidium iodide staining based fluorometer assay
property-name: IC50 (µM)
Kindly answer with a numeric value in µM, unit omitted.

Illustrative cases are given below, each with its answer.
COc1cc(/C=C2\CC(C(C)C)C/C(=C\c3cc(OC)c(OC)c(OC)c3Br)C2=O)c(Br)c(OC)c1OC (stereo unspecified)    7.4
COc1ccc(/C=C2\CCc3ccc(Br)cc3C2=O)c(Cl)c1OC    11.1
COc1ccc(/C=C2\CCc3ccc(Cl)cc3C2=O)c(Cl)c1OC    10.6

Reported IC50 of `COc1cccc(/C=C2\CN(C)C/C(=C\c3cccc(OC)c3Cl)C2=O)c1Cl` : 4

Reported IC50 of `COc1cccc2c1CC/C(=C\c1cc(OC)c(OC)c(OC)c1Br)C2=O` : 4.7

Reported IC50 of `COc1cccc2c1CC/C(=C\c1ccc(OC)c(OC)c1Cl)C2=O` : 6.4

---

- Test system: NCI-H460
- assay: cells
- recorded-conditions: Homo sapiens, NCI-H460, 48 h
Hi all, reminder that labels come from IC50, split as 1 = under 3 µM, 2 = from 3 µM up to 8 µM, 3 = 8 µM and over

Some solved cases for reference:
COc1cc(/C=C2\CN(Cc3ccccc3)C/C(=C\c3cc(OC)c(OC)c(OC)c3Br)C2=O)c(Br)c(OC)c1OC    3
COc1ccc2c(c1)CC/C(=C\c1ccc(OC)c(OC)c1Cl)C2=O    1

Query block: Which class is correct for the following molecule? `COc1cc2c(cc1OC)C(=O)/C(=C/c1cc(OC)c(OC)c(OC)c1Br)CC2`
Result block: 1

Query block: Which class is correct for the following molecule? `COc1ccc2c(c1)CC/C(=C\c1cc(OC)c(OC)c(OC)c1Br)C2=O`
Result block: 1

Query block: Which class is correct for the following molecule? `COc1cc2c(cc1OC)C(=O)/C(=C/c1cccc(OC)c1Cl)CC2`
Result block: 3

Query block: Which class is correct for the following molecule? `COc1cc(/C=C2\CNC/C(=C\c3cc(OC)c(OC)c(OC)c3Br)C2=O)c(Br)c(OC)c1OC`
Result block: 2

Query block: Which class is correct for the following molecule? `COc1ccc(/C=C2\CCc3ccccc3C2=O)c(Cl)c1OC`
Result block: 3

Query block: Which class is correct for the following molecule? `COc1cc(/C=C2\CN(C)C/C(=C\c3cc(OC)c(OC)c(OC)c3Br)C2=NO)c(Br)c(OC)c1OC`
Result block: 1

Query block: Which class is correct for the following molecule? `COc1cccc(/C=C2\CCc3ccc([N+](=O)[O-])cc3C2=O)c1Cl`
Result block: 2
